Where do these numbers come from? They come from PubChem BioAssay (EPA / NIEHS).

Assay: CCTE_Mundy_HCI_Cortical_Synap_Neur_Matur_NeuriteSpotCountPerNeuriteLength: CCTE's Synaptogenesis and Neurite Maturation Assay in rat cortical cells for Neurite Spot Count per Neurite Length, Mundy Lab (AID 2284210)
Active and inactive are the calls of the source. The calls were made as follows: active = hit-call score of the fitted dose curve at least 0.9, where 1 is the maximum; inactive = score below 0.9.
Just give me one of these, please: active, inactive

Request: GET /call?item= "CSC(=O)c1cccc2nnsc12" returns the recorded outcome of this test.
Response: inactive

Request: Can you handle "C#CCOC(=O)[C@@H](C)Oc1ccc(Oc2ncc(Cl)cc2F)cc1" next?
Response: inactive

Request: Can you handle CC1(C)C(C=C(Cl)Cl)C1C(=O)OCc1cccc(Oc2ccccc2)c1 (stereo unspecified) next?
Response: inactive

Request: Can you handle "CCCN(CCC)C(=O)SCC" next?
Response: inactive

Request: Can you handle "Cc1nn(C)c(Oc2ccccc2)c1C=NOCc1ccc(C(=O)OC(C)(C)C)cc1" next?
Response: active

Request: Can you handle "S=C(S)NCCNC(=S)S.[Mn+2].[S-]C([S-])=NCCN=C([S-])[S-].[Zn+2]" next?
Response: inactive

----------
Read-out: Keratin 19 (KRT19), KRT19 (gene 3880)
Assay: LTEA_HepaRG_KRT19: Life Technologies and Expression Analysis (LTEA) Assay for Keratin 19 (KRT19) using HepaRG (AID 2283512)
Condition Context: mRNA level, 48 h; actives raise or lower the signal
The source made the active and inactive calls. The calls were made as follows: active = hit-call score of the fitted dose curve at least 0.9, where 1 is the maximum; inactive = score below 0.9.
Just give me one of these, please: true for active, false for inactive

Request: GET /call?item= "C#CCOC(=O)[C@@H](C)Oc1ccc(Oc2ncc(Cl)cc2F)cc1" returns the recorded outcome of this test.
Response: false

Request: Can you handle "N[C@@H](Cc1cc(I)c(Oc2ccc(O)c(I)c2)c(I)c1)C(=O)O" next?
Response: true

Request: Can you handle "CCCCOC(=O)[C@@H](C)Oc1ccc(Oc2ccc(C(F)(F)F)cn2)cc1" next?
Response: false

Request: Can you handle CC1(C)C(C=C(Cl)Cl)C1C(=O)OCc1cccc(Oc2ccccc2)c1 (stereo not given) next?
Response: false

Request: Can you handle "CC(C)(C)[C@@H](O)[C@@H](Cc1ccc(Cl)cc1)n1cncn1" next?
Response: false

Request: Can you handle "CCCOC(=O)NCCCN(C)C" next?
Response: false

Request: Can you handle CCOC(=O)C(C)Oc1ccc(Oc2cnc3cc(Cl)ccc3n2)cc1 (stereo not given) next?
Response: false

Request: Can you handle "CC(C)(c1ccc(O)cc1)c1ccc(O)cc1" next?
Response: false

Request: Can you handle "O=C(O)c1ccccc1" next?
Response: false

Request: Can you handle CCCCC(CC)COC(=O)c1ccccc1C(=O)O (stereo not given) next?
Response: false

Request: Can you handle "COCCO" next?
Response: false

Request: Can you handle "c1ccc(Nc2ccccc2)cc1" next?
Response: false

Request: Can you handle "COC(=O)c1ccccc1C(=O)O" next?
Response: false

Request: Can you handle "CC(=O)[C@H]1CC[C@H]2[C@@H]3CCC4=CC(=O)CC[C@]4(C)[C@H]3CC[C@]12C" next?
Response: true

Request: Can you handle "N#CSCSc1nc2ccccc2s1" next?
Response: false

Request: Can you handle "CC(=O)S[C@@H]1CC2=CC(=O)CC[C@]2(C)[C@H]2CC[C@@]3(C)[C@@H](CC[C@@]34CCC(=O)O4)[C@H]12" next?
Response: false

Request: Can you handle CCCCCCC(C)OC(=O)COc1nc(F)c(Cl)c(N)c1Cl (stereo not given) next?
Response: false

Request: Can you handle "O=C(c1ccccc1)C1CCCCC1" next?
Response: false

Request: Can you handle "CCOC(=O)NCCOc1ccc(Oc2ccccc2)cc1" next?
Response: true

Request: Can you handle "CCCCCOC(=O)COc1cc(N2C(=O)C3=C(CCCC3)C2=O)c(F)cc1Cl" next?
Response: false

Request: Can you handle CCCCOC(=O)C(C)Oc1ccc(Oc2ccc(C(F)(F)F)cn2)cc1 (stereo not given) next?
Response: false

Request: Can you handle "Oc1ccc(C(c2ccc(O)cc2)C(Cl)(Cl)Cl)cc1" next?
Response: true

Request: Can you handle "OB(O)O" next?
Response: false

Request: Can you handle "CSC(=O)c1cccc2nnsc12" next?
Response: false

Request: Can you handle "CCOC(=O)c1ccc(O)cc1" next?
Response: false
